- testedSystem: PKMYT1 (Homo sapiens)
- Construct: PKMYT1 (93 kD, full length, N-terminal GST tag from Signal Chem); GST (N); purchased Signal Chem
- Sequence (Q99640 whole entry): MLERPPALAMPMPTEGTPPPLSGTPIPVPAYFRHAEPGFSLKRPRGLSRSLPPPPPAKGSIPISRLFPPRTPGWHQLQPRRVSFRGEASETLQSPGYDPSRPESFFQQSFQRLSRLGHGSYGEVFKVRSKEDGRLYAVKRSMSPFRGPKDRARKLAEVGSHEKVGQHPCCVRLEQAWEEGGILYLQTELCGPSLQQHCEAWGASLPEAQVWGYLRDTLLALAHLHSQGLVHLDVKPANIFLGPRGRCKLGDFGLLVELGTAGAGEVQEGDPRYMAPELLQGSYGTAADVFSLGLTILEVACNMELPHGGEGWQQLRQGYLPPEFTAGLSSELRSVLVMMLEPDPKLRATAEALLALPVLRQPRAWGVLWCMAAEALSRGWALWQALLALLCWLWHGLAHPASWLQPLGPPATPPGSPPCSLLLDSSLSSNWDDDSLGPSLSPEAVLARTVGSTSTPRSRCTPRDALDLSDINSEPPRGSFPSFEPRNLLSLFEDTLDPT
- procedureSummary: ADP-Glo PKMYT1 ATP-depletion assay
- condition: 50 nM PKMYT1, 13.3 nM CDK1, read-out: Biochemical IC50
- Procedure: Biochemical IC50 values were determined via ADP-Glo™ assay. Cellular IC50 values were determined via AlphaLISA assay. ADP-Glo™ PKMYT1 ATP-depletion assay. The activity of PKMYT1 is measured using a luciferase-luciferin based ATP detection reaction to quantify ATP depletion resulting from kinase-catalyzed phosphoryl transfer to CDK1 or autophosphorylation of PKMYT1. The ADP generated as a byproduct of the reaction is converted to ATP and used to drive a luciferase reaction. […]
pIC50: −log10 of the molar value.
experimentalReadout: pIC50

Example entries begin here.
{"compound": "Cc1c(O)cncc1-c1c(N)c(C(N)=O)nc2cccnc12 [Compound 155]", "testedSystem": "PKMYT1 (Homo sapiens)", "obsValue": "6.30 to 7.30"}
{"compound": "Cc1cccc(C)c1-c1c(N)c(C(N)=O)cc2nccnc12 [Compound 308]", "testedSystem": "PKMYT1 (Homo sapiens)", "obsValue": "≤ 5.30"}
{"compound": "Cc1ccc2[nH]nc(F)c2c1-c1c(N)c(C(N)=O)cc2nccnc12 [Compound 176]", "testedSystem": "PKMYT1 (Homo sapiens)", "obsValue": "6.00 to 6.30"}
{"compound": "NC(=O)c1nc2cccnc2c(-c2cnn3ccccc23)c1N [Compound 323]", "testedSystem": "PKMYT1 (Homo sapiens)", "obsValue": "5.30 to 6.00"}
{"compound": "Cc1cc(O)cc(C)c1-c1cc(C(N)=O)cc2nccnc12 [Compound 131]", "testedSystem": "PKMYT1 (Homo sapiens)", "obsValue": "≤ 5.30"}

Please find the next compound below.
What does the record list as pIC50 for Cc1cnc2cc(C(N)=O)c(N)c(-c3cccc(O)c3C)c2n1 (atropisomer, axis not shown) [Compound 169] ? 6.30 to 7.30
